Tested target: REV-ERBα LBD (human; residues 281-614 Δ324-422) (Homo sapiens, UniProt P20393, DEL324-422)
Construct: 6×Histag-REV-ERBα LBD (human; residues 281-614 Δ324-422); made in house; host or cells: Escherichia coli
Sequence (P20393 with tags, fused parts or gaps DEL324-422): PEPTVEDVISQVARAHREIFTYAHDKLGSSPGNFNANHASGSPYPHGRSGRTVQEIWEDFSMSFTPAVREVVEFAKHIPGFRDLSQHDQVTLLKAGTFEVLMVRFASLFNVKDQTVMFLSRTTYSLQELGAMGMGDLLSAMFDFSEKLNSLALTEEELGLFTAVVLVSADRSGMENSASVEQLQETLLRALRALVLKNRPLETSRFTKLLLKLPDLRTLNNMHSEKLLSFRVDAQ
Sequence (Q9Y618 2335-2356 partner limits assumed): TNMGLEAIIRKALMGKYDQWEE
Experiment description: TR-FRET corepressor interaction assay (REV-ERBα LBD, FITC-SMRT peptide)
Assay type: biochemical
Run parameters: Table 2, read-out: REVERBα agonism (EC50 class, FRET assay)
Readout name: EC50

// EC50 lookup, key: CC(C)Cn1cc(-c2cccc(CNS(=O)(=O)C(C)C)c2)c2ccc(-c3ccccc3)cc21 [Example 86]
500 to 3000 nM

// EC50 lookup, key: COc1cc(-c2ccc3c(CCNS(=O)(=O)N(C)C)cn(CC(C)C)c3c2)ccn1 [Compound 19]
500 to 3000 nM

// EC50 lookup, key: CC(C)Cn1cc(CCS(=O)(=O)C(C)C)c2ccc(-c3ccncc3)cc21 [Compound 248]
< 500 nM

// EC50 lookup, key: CC(C)S(=O)(=O)NCCn1cc(CC(C)(C)C)c2cc(Br)ccc21 [Example 171]
500 to 3000 nM

// EC50 lookup, key: CC(C)Cn1cc(CNS(=O)(=O)C(C)C)c2cc(F)c(-c3ccncc3)cc21 [Compound 265]
< 500 nM

// EC50 lookup, key: CN(C)S(=O)(=O)NCCc1cn(CCC(F)(F)F)c2cc(-c3ccncc3)ccc12 [Example 179]
< 500 nM

// EC50 lookup, key: COC(=O)Cn1cc(CCNS(=O)(=O)N(C)C)c2ccc(Br)cc21 [Example 164]
> 3000 nM

// EC50 lookup, key: CC(C)Cn1cc([C@H](NS(=O)(=O)C2CC2)C(F)(F)F)c2ccc(C(C)C)cc21 [Example 333]
< 500 nM

// EC50 lookup, key: CC(C)(C)Cc1cn(CCNS(=O)(=O)C2CC2)c2ccc(-c3c(Cl)cc(F)cc3Cl)cc12 [Example 297]
500 to 3000 nM

// EC50 lookup, key: CC(C)Cn1cc(CC(N(C)S(=O)(=O)C(C)C)C(F)(F)F)c2ccc(-c3ccncc3)cc21 (centres unmarked) [Compound 274]
> 3000 nM

// EC50 lookup, key: CC(C)Cn1cc(CCNS(=O)(=O)N(C)C)c2ccc(-c3ccnc(C(F)(F)F)c3)cc21 [Compound 17]
500 to 3000 nM

// EC50 lookup, key: CC(C)Cn1cc(CCNS(=O)(=O)N(C)C)c2ccc(-c3ccc(F)cc3)cc21 [Example 45]
500 to 3000 nM

// EC50 lookup, key: CN(C)S(=O)(=O)N[C@@H](c1cn(CC(C)(C)C)c2cc(-c3ccccc3Cl)ccc12)C(F)(F)F [Example 338]
< 500 nM

// EC50 lookup, key: CN(C)S(=O)(=O)NCCc1c[nH]c2cc(-c3ccncc3)ccc12 [Compound 40]
> 3000 nM

// EC50 lookup, key: CC(C)(C)Cn1cc([C@H](NS(=O)(=O)C(C)(C)C)C(F)(F)F)c2cc(F)c(-c3ccccc3C(F)(F)F)cc21 [Example 366]
500 to 3000 nM

// EC50 lookup, key: CN(C)S(=O)(=O)NCCc1cn(Cc2ccc(F)cc2F)c2cc(-c3ccncc3)ccc12 [Example 149]
500 to 3000 nM

// EC50 lookup, key: CC(C)Cn1cc(CCN(C)S(=O)(=O)N(C)C)c2ccc(C#N)cc21 [Compound 122]
> 3000 nM

// EC50 lookup, key: Cc1cn[nH]c1-c1cc2c(cc1F)c([C@H](NS(=O)(=O)C1CC1)C(F)(F)F)cn2CC(C)(C)C [Example 381]
500 to 3000 nM

// EC50 lookup, key: CC(C)S(=O)(=O)CCn1cc(CC(C)(C)C)c2cc(Br)ccc21 [Example 175]
> 3000 nM

// EC50 lookup, key: CC(C)Cn1cc(CCNS(=O)(=O)N(C)C)c2ccc(-c3cc[nH]c(=O)c3)cc21 [Compound 18]
> 3000 nM

// EC50 lookup, key: CC(C)Cn1cc(CCNS(=O)(=O)N(C)C)c2ccc(-c3cnn(C)c3)cc21 [Compound 33]
> 3000 nM

// EC50 lookup, key: CC(C)Cn1cc([C@H](NS(=O)(=O)C2CC2)C(F)(F)F)c2cc(F)c(-c3ccccc3C(F)(F)F)cc21 [Example 313]
< 500 nM

// EC50 lookup, key: COC(=O)c1ccccc1-c1ccc2c(CCNS(=O)(=O)N(C)C)cn(CC(C)C)c2c1 [Example 73]
> 3000 nM

// EC50 lookup, key: CC(C)Cn1cc(CCNS(=O)(=O)N(C)C)c2c(Br)cccc21 [Example 136]
500 to 3000 nM

// EC50 lookup, key: CC(C)Cn1cc(C2(CNS(=O)(=O)N(C)C)CC2)c2ccc(-c3ccncc3)cc21 [Example 178]
< 500 nM

// EC50 lookup, key: CC(C)(C)Cn1cc([C@H](NS(=O)(=O)C2CC2)C(F)(F)F)c2cc(F)c(-c3ccncc3Cl)cc21 [Example 361]
< 500 nM

* * *

Could you please report measured EC50 for the items listed next?
Tested target: REV-ERBα LBD (human; residues 281-614 Δ324-422) (Homo sapiens, UniProt P20393, DEL324-422)
Construct: 6×Histag-REV-ERBα LBD (human; residues 281-614 Δ324-422); made in house; host or cells: Escherichia coli
Experiment description: TR-FRET corepressor interaction assay (REV-ERBα LBD, FITC-SMRT peptide)
Format: biochemical
Run parameters: FITC-SMRT peptide, read-out: REVERBα agonism (EC50 class, FRET assay)

// EC50 lookup, key: CC(C)(C)Cn1cc([C@H](NS(=O)(=O)C2CCC2)C(F)(F)F)c2cc(F)c(-c3cccc4c3CCCC4)cc21 [Example 479]
< 500 nM

// EC50 lookup, key: COC(C)(C)Cn1cc([C@H](NS(=O)(=O)C2CC2)C(F)(F)F)c2cc(F)c(-c3ccccc3C(F)(F)F)cc21 [Example 475]
< 500 nM

// EC50 lookup, key: CC(C)(C)Cn1cc([C@H](NS(=O)(=O)C2CC2)C(F)F)c2cc(F)c(-c3ccccc3C(F)(F)F)nc21 [Example 546]
< 500 nM

* * *

Tested target: REV-ERBα LBD (human; residues 281-614 Δ324-422) (Homo sapiens, UniProt P20393, DEL324-422)
Construct: 6×Histag-REV-ERBα LBD (human; residues 281-614 Δ324-422); made in house; host or cells: Escherichia coli
Experiment description: TR-FRET corepressor interaction assay (REV-ERBα LBD, FITC-SMRT peptide)
Type: biochemical
Run parameters: Table 2, read-out: REVERBα agonism (EC50 class, FRET assay)
Readout name: EC50

// EC50 lookup, key: "CC(C)S(=O)(=O)N[C@@H](c1cn(CC(C)(C)C)c2cc(-c3ccccc3C(F)(F)F)c(F)cc12)C(F)(F)F"
500 to 3000 nM

// EC50 lookup, key: "CN(C)S(=O)(=O)N(C)CCc1cn(C)c2cc(-c3ccncc3)ccc12"
500 to 3000 nM

// EC50 lookup, key: "CN(C)S(=O)(=O)NCCc1cn(Cc2ccccn2)c2cc(Br)ccc12"
500 to 3000 nM

// EC50 lookup, key: "CC(C)CCn1cc(CCNS(=O)(=O)N(C)C)c2ccc(-c3ccncc3)cc21"
< 500 nM

// EC50 lookup, key: "CC(C)(C)Cc1cn(CCNS(=O)(=O)C2CC2)c2ccc(-c3ccc(C(F)(F)F)cc3Cl)cc12"
< 500 nM

// EC50 lookup, key: "CC(C)Cn1cc([C@H](NS(=O)(=O)C2CC2)C(F)(F)F)c2cc(F)c(C3CC3)cc21"
< 500 nM

// EC50 lookup, key: CCC(C)C(=O)n1cc(CNS(=O)(=O)N(C)C)c2ccc(-c3ccncc3)cc21 (stereo not shown)
< 500 nM

* * *

Tested target: REV-ERBα LBD (human; residues 281-614 Δ324-422) (Homo sapiens, UniProt P20393, DEL324-422)
Construct: 6×Histag-REV-ERBα LBD (human; residues 281-614 Δ324-422); made in house; host or cells: Escherichia coli
Experiment description: TR-FRET corepressor interaction assay (REV-ERBα LBD, FITC-SMRT peptide)
Format: biochemical
Run parameters: Table 2, read-out: REVERBα agonism (EC50 class, FRET assay)
Readout name: EC50

// EC50 lookup, key: CC(C)Cn1cc(CCS(=O)(=O)C(C)C)c2ccc(C3CCCCC3)cc21 [Compound 250]
< 500 nM

// EC50 lookup, key: CC(C)Cn1cc([C@H](NS(=O)(=O)C2CC2)C(F)(F)F)c2ccc(Br)cc21 [Example 306]
< 500 nM

// EC50 lookup, key: CC(C)Cn1cc(C(C)NS(=O)(=O)C2CC2)c2ccc(-c3ccccc3C(F)(F)F)cc21 (stereo not drawn) [Example 204]
< 500 nM

// EC50 lookup, key: Cc1ccc2c(c1)c(CC(C)(C)C)cn2CCNS(=O)(=O)C1CC1 [Example 296]
500 to 3000 nM

// EC50 lookup, key: CC(C)(C)Cn1cc([C@H](NS(=O)(=O)N2CCCC2)C(F)(F)F)c2cc(F)c(-c3ccccc3C(F)(F)F)cc21 [Example 347]
< 500 nM

// EC50 lookup, key: CC(C)Cn1cc(C(C)CNS(=O)(=O)C2CC2)c2ccc(-c3ccncc3)cc21 (stereo not drawn) [Compound 253]
500 to 3000 nM
